Where these numbers come from: paper PMC5541792

Test: Pharmacokinetic study in rats after oral administration of GLGZG (UPLC-MS/MS of plasma)
Assay type: in vivo, rat
Settings: rat plasma, male SD rats, oral GLGZG 3.6 g·(kg·day)^−1, n = 6; read-out: T 1/2z
I'd appreciate it if you marked entries yes (1) when half-life is lower than 3 h and no (0) when it is not.

# Compound, Label class
rows = [
    ("O=C(/C=C/c1ccc(O)cc1)c1ccc(O)cc1O [Isoliquiritigenin, isoliquiritigenin]", "no (0)"),
]

Threshold test, half-life < 3 h: CC1(C)[C@@H](O[C@H]2O[C@H](C(=O)O)[C@@H](O)[C@H](O)[C@H]2O[C@@H]2O[C@H](C(=O)O)[C@@H](O)[C@H](O)[C@H]2O)CC[C@]2(C)[C@H]3C(=O)C=C4[C@@H]5C[C@@](C)(C(=O)O)CC[C@]5(C)CC[C@@]4(C)[C@]3(C)CC[C@@H]12 [Glycyrrhizic acid, glycyrrhizic acid]
yes (1)

Threshold test, half-life < 3 h: O=C1C[C@@H](c2ccc(O)cc2)Oc2cc(O)ccc21 [Liquiritigenin, liquiritigenin]
no (0)

Threshold test, half-life < 3 h: CC12CC(O)C3CC1(OC1OC(CO)C(O)C(O)C1O)C3(COC(=O)c1ccccc1)C(=O)O2 (centres unmarked) [Albiflorin, albiflorin]
yes (1)

Threshold test, half-life < 3 h: CC1(C)[C@@H](O)CC[C@]2(C)[C@H]3C(=O)C=C4[C@@H]5C[C@@](C)(C(=O)O)CC[C@]5(C)CC[C@@]4(C)[C@]3(C)CC[C@@H]12 [Glycyrrhetinic acid, glycyrrhetinic acid]
yes (1)

----------
Experiment: Stability of analytes in rat plasma samples (method validation)
Format: in vitro ADME
Details: three freeze-thaw cycles at −80°C, middle QC nominal concentration, n = 6
Could you please report measured Freeze-thaw stability (3 cycles) Mean for the items listed next?
Numbers only, in %.

# Compound, Experimental result
rows = [
    ("O=C(/C=C/c1ccc(O)cc1)c1ccc(O)cc1O [Isoliquiritigenin, isoliquiritigenin]", 107.70),
    ("O=C1C[C@@H](c2ccc(O[C@@H]3O[C@H](CO)[C@@H](O)[C@H](O)[C@H]3O)cc2)Oc2cc(O)ccc21 [Liquiritin, liquiritin]", 109.75),
    ("CC1(C)[C@@H](O[C@H]2O[C@H](C(=O)O)[C@@H](O)[C@H](O)[C@H]2O[C@@H]2O[C@H](C(=O)O)[C@@H](O)[C@H](O)[C@H]2O)CC[C@]2(C)[C@H]3C(=O)C=C4[C@@H]5C[C@@](C)(C(=O)O)CC[C@]5(C)CC[C@@]4(C)[C@]3(C)CC[C@@H]12 [Glycyrrhizic acid, glycyrrhizic acid]", 108.78),
    ("C[C@@]12C[C@@]3(O)O[C@@H](O1)[C@]1(COC(=O)c4ccccc4)[C@H]3C[C@@]12O[C@@H]1O[C@H](CO)[C@@H](O)[C@H](O)[C@H]1O [Paeoniflorin, paeoniflorin]", 92.82),
    ("O=C(/C=C/c1ccc(O[C@@H]2O[C@H](CO)[C@@H](O)[C@H](O)[C@H]2O)cc1)c1ccc(O)cc1O [Isoliquiritin, isoliquiritin]", 94.03),
]

Entry CC12CC(O)C3CC1(OC1OC(CO)C(O)C(O)C1O)C3(COC(=O)c1ccccc1)C(=O)O2 (stereo not drawn) [Albiflorin, albiflorin] , Freeze-thaw stability (3 cycles) Mean reported as 108.14

----------
Experiment: Pharmacokinetic study in rats after oral administration of GLGZG (UPLC-MS/MS of plasma)
Format: in vivo, rat
Conditions: rat plasma, male SD rats, oral GLGZG 3.6 g·(kg·day)^−1, n = 6
Quantity measured: Tmax (min)
Answers are plain numbers, in min.

Example results:
# Compound, Readout units, Experimental result
data = [
    ("C[C@@]12C[C@@]3(O)O[C@@H](O1)[C@]1(COC(=O)c4ccccc4)[C@H]3C[C@@]12O[C@@H]1O[C@H](CO)[C@@H](O)[C@H](O)[C@H]1O", "min", 80),
    ("CC12CC(O)C3CC1(OC1OC(CO)C(O)C(O)C1O)C3(COC(=O)c1ccccc1)C(=O)O2 (stereo not shown)", "min", 60),
    ("O=C(/C=C/c1ccc(O[C@@H]2O[C@H](CO)[C@@H](O)[C@H](O)[C@H]2O)cc1)c1ccc(O)cc1O", "min", 28.3),
    ("O=C(/C=C/c1ccc(O)cc1)c1ccc(O)cc1O", "min", 30),
    ("CC1(C)[C@@H](O[C@H]2O[C@H](C(=O)O)[C@@H](O)[C@H](O)[C@H]2O[C@@H]2O[C@H](C(=O)O)[C@@H](O)[C@H](O)[C@H]2O)CC[C@]2(C)[C@H]3C(=O)C=C4[C@@H]5C[C@@](C)(C(=O)O)CC[C@]5(C)CC[C@@]4(C)[C@]3(C)CC[C@@H]12", "min", 54),
]

// each compound listed below needs its Tmax
1. O=C1C[C@@H](c2ccc(O)cc2)Oc2cc(O)ccc21
2. CC1(C)[C@@H](O)CC[C@]2(C)[C@H]3C(=O)C=C4[C@@H]5C[C@@](C)(C(=O)O)CC[C@]5(C)CC[C@@]4(C)[C@]3(C)CC[C@@H]12

[26.7, 600]
